Data origin, for the record: patent US20150152091A1

System: temperate cauliflower Spacestar seeds (Brassica oleracea cv Botrytis)
method: Standard paper germination test for Brassica, suboptimal conditions
Assay type: in vivo
measurementConditions: Spacestar 11B313 (cold-sensitive); 25 μM; 10° C. in the light; set A
// rule not met strictly below 70% in Gmax (%), total germination as percentage of sown seeds; rule met otherwise

{"columns": ["molecule", "system", "discreteLabel"],
 "data": [
  ["CC1=CC(OC=C2C(=O)N(c3ccccc3)C3c4ccccc4CC23)OC1=O (stereo not drawn) [Compound A3]", "temperate cauliflower Spacestar seeds (Brassica oleracea cv Botrytis)", "rule met"],
  ["CC1=CC(OC=C2C(=O)NC3c4ccccc4CC23)OC1=O (stereo not drawn) [Compound A1]", "temperate cauliflower Spacestar seeds (Brassica oleracea cv Botrytis)", "rule met"],
  ["CC1=CC(OC=C2C(=O)N(C(=O)OC(C)(C)C)C3c4ccccc4CC23)OC1=O (mixture of isomers) [Compound A5]", "temperate cauliflower Spacestar seeds (Brassica oleracea cv Botrytis)", "rule met"],
  ["CC(=O)N1C(=O)C(=COC2C=C(C)C(=O)O2)C2Cc3ccccc3C21 (stereo not drawn) [Compound A4]", "temperate cauliflower Spacestar seeds (Brassica oleracea cv Botrytis)", "rule met"],
  ["CC1=CC(OC=C2C(=O)NC3c4ccccc4CC23)OC1=O (stereo not drawn) [Compound B1]", "temperate cauliflower Spacestar seeds (Brassica oleracea cv Botrytis)", "rule not met"]
]}
